Cited source for all entries: PubChem BioAssay (NCI)

Tested on: OVCAR-4 ovarian
Assay: NCI-60 one-dose screen, 48 h
Settings: 10 µM unless noted
Compounds without any hit were thinned out: in the full panel of roughly 83,000, 20% have a hit. Active and inactive are the calls of the source. The calls were made as follows: active = growth percent below 10; inactive = the rest.
Form entry, call: pick from active, inactive

Data request: Hi, do you know how COc1ccc(/C=C\c2cc(OC)c(OC)c(OC)c2)cc1NS(=O)(=O)c1ccc(Cl)cc1 came out in this test?
Data returned: inactive

Data request: Hi, do you know how COc1ccc(C(O)(C(=O)O)c2ccc(OC)cc2)cc1 came out in this test?
Data returned: inactive

Data request: Hi, do you know how COC(=O)[C@@H](C)C[C@H](Cc1ccccc1)NC(=O)c1csc([C@@H](C[C@H](C(C)C)N(C)C(=O)C2(NC(=O)[C@H]3CCCCN3C)CCC2)OC(C)=O)n1 came out in this test?
Data returned: inactive

Data request: Hi, do you know how COC(=O)C1OC(Oc2ccc(N(CCCl)CCCl)cc2)C(OC(C)=O)C(OC(C)=O)C1OC(C)=O (stereo not given) came out in this test?
Data returned: inactive

Data request: Hi, do you know how [Au+].[N-]=C=O.c1ccc(CN2[CH-]N(Cc3ccccc3)C(c3ccccc3)=C2c2ccccc2)cc1 came out in this test?
Data returned: inactive

Data request: Hi, do you know how Fc1cccc(NCOOC2(OOCNc3cccc(F)c3)CCCCC2)c1 came out in this test?
Data returned: inactive

Data request: Hi, do you know how Nc1ncnc2n[nH]nc12 came out in this test?
Data returned: inactive

Data request: Hi, do you know how Nc1nc([Se])c2ncn(C3OC(CO)C(O)C3O)c2n1 (stereo not given) came out in this test?
Data returned: inactive

Data request: Hi, do you know how C=C1C[C@](OC)([C@H](O)C(=O)N[C@@H](OC)[C@@H]2C[C@@H](O)C(C)(C)[C@@H](C[C@@H](COC)OC)O2)O[C@H](C)[C@@H]1C came out in this test?
Data returned: active

Data request: Hi, do you know how CCn1c2ccccc2c2cc(C(=O)c3cccc4c3CCCN4)ccc21 came out in this test?
Data returned: inactive

====

Test system: UACC-257 melanoma
Experiment: NCI-60 one-dose screen, 48 h
Conditions: 10 µM unless noted
About 83,000 compounds went through this panel and 20% of them were active in at least one assay; those are over-represented in the sample as a whole. Active and inactive are the calls of the source. Rule for the calls: active = growth percent below 10; inactive = the rest.
Form entry, call: pick from label 1 (active), label 0 (inactive)

Data request: Hi, do you know how C1CCC([PH+](C2CCCCC2)C2CCCCC2[PH+](C2CCCCC2)C2CCCCC2)CC1.[Au].[CH-]1CCCCC1CC1CCCC[N-]1 (centres undefined) came out in this test?
Data returned: label 1

Data request: Hi, do you know how C/C(=C\c1ccn(-c2ccc(N)cc2)n1)[C@@H]1C[C@@H]2O[C@]2(C)CCC[C@H](C)[C@H](O)[C@@H](C)C(=O)C(C)(C)[C@@H](O)CC(=O)O1 came out in this test?
Data returned: label 0

Data request: Hi, do you know how NC(=O)C(Br)c1ccccc1 (centres undefined) came out in this test?
Data returned: label 0

Data request: Hi, do you know how C=CCCCCCCCCC(=O)[O-].C=CCCCCCCCCC(=O)[O-].[Zn+2] came out in this test?
Data returned: label 0

====

System: DU-145 prostate
Assay: NCI-60 one-dose screen, 48 h
Details: 10 µM unless noted
The panel holds about 83,000 compounds, 20% with a hit somewhere; the sample as a whole holds those more often. The source made the active and inactive calls. How the source made its calls: active means growth percent below 10; inactive means the rest.
Form entry, call: pick from active, inactive

Data request: Hi, do you know how C[C@]12CC[C@H]3[C@@H](CC4SC(N)=NC45C/C(=N/NC(N)=O)CC[C@]35C)[C@@H]1CCC2=O (stereo not given in full) came out in this test?
Data returned: inactive

Data request: Hi, do you know how CCCCCC1(CCBr)C(=O)NC(=O)NC1=O came out in this test?
Data returned: inactive

Data request: Hi, do you know how ClC1=C(Cl)C(Cl)(C2(Cl)C(Cl)=C(Cl)C(Cl)=C2Cl)C(Cl)=C1Cl came out in this test?
Data returned: active

Data request: Hi, do you know how CCCCCCCCC(CO)NCCc1ccccc1 (stereo not given) came out in this test?
Data returned: inactive

Data request: Hi, do you know how Fc1ccc(N2COOC3(OOC2)C2CC4CC(C2)CC3C4)cc1 came out in this test?
Data returned: inactive

Data request: Hi, do you know how CC(=O)OC1CCC2C3CCC4=C/C(=N/OC(=O)c5ccc(N(CCCl)CCCl)cc5)CCC4(C)C3CC(C)C12 (stereo not given) came out in this test?
Data returned: inactive

Data request: Hi, do you know how CC(=O)Nc1nc2c(s1)CC[C@@]1(C)C2=CC[C@H]2[C@@H]3CC[C@H](O)[C@@]3(C)CC[C@@H]21 came out in this test?
Data returned: inactive

Data request: Hi, do you know how Brc1ccc2c(c1)c(-c1nc(-c3c[nH]c4ncccc34)cs1)cn2CCN1CCOCC1 came out in this test?
Data returned: inactive

Data request: Hi, do you know how CCC1(C(C)C)C(=O)NC(=S)NC1=O came out in this test?
Data returned: inactive

Data request: Hi, do you know how COc1ccc(N(CC(=O)NCCC[Te]c2ccccc2)C(=O)CCSC2=C(C)C(=O)c3ccccc3C2=O)cc1 came out in this test?
Data returned: active
